Numbers sourced from patent US10577357B2.

List of activity at 50 µM values.
- system tested: PCSK9 (Homo sapiens)
- Construct: host or cells: exogenous PCSK9 protein added to HepG2 cells
- Sequence (Q8NBP7 153-692): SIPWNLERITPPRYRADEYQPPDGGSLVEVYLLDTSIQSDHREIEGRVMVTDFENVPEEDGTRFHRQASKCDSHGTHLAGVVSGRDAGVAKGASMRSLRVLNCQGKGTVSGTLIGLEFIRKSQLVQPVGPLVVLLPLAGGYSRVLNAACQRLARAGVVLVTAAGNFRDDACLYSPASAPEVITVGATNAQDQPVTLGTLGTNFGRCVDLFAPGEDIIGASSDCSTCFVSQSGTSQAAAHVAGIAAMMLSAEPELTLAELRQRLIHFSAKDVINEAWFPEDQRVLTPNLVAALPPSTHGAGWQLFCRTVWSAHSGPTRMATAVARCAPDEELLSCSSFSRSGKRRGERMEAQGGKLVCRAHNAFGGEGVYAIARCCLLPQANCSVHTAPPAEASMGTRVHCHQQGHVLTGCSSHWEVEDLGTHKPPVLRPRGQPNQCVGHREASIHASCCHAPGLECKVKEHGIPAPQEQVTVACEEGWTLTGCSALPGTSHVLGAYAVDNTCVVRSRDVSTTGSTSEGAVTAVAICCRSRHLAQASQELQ
- Sequence (Q8NBP7 31-152 partner limits assumed): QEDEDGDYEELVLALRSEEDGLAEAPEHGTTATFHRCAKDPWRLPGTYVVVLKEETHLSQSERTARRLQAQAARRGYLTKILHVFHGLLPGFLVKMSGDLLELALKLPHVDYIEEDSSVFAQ
- assay comment: LDL-uptake assay (BODIPY-LDL) in HepG2 cells with added PCSK9
- Assay type: cell-based
- condition set: inhibitors 50 μM preincubated with 10 μg/mL PCSK9 for 30 min, BODIPY-LDL 10 μg/mL, quintuplicate

molecule	activity at 50 µM / %
CC(C)C[C@@H](C(=O)N[C@H](CCCNC(=N)N)C(=O)NCCC(=O)O)N1CCN(C(=O)[C@H](CS)N2C(=O)N[C@H](CC(N)=O)C2=O)CC1	19
CC(C)C[C@H](C(=O)N1CCN([C@@H](CC(N)=O)C(=O)N[C@@H](CCCNC(=N)N)C(=O)NC2CCOC2=O)CC1)N1C(=O)N[C@@H](CC(=O)O)C1=O (stereo partly shown)	8.7
CC(C)C[C@H](C(=O)N1CCN([C@@H](CC(N)=O)C(=O)N[C@@H](CCCNC(=N)N)C(=O)NCCC(=O)O)CC1)N1C(=O)N[C@@H](CC(=O)O)C1=O	13.5
N=C(N)NCCC[C@@H](NC(=O)[C@H](CC(=O)O)N1CCN(C(=O)[C@H](CC(N)=O)N2C(=O)N[C@@H](CCC(N)=O)C2=O)CC1)C(=O)NCCC(=O)O	8.6
